The reported measurements were obtained from patent US20110060013A1.

SYSTEM: Aurora-1 (Aurora B) (Homo sapiens)
Sequence (Q96GD4 whole entry): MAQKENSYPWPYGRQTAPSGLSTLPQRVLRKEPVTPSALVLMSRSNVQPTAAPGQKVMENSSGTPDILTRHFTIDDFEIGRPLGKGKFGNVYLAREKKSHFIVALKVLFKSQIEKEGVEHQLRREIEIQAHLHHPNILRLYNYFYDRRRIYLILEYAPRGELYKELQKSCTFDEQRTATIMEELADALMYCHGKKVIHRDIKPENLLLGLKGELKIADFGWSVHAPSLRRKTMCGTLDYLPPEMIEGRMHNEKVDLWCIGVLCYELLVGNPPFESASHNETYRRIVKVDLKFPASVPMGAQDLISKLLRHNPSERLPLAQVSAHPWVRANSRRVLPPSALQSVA
pKi: −log10 of the molar value.
pKi listing for selected compounds.

• Cc1cnc(Nc2cc(N3CC[C@H](F)C3)cc(Sc3ccc(NC(=O)C4CC4)cc3)n2)s1 [Compound 1] = > 6.00

Please turn your attention to the following entry.
Data request, read-out pKi, for Cc1cc(Nc2cc(N3CC[C@H](F)C3)cc(Sc3ccc(NC(=O)C4CC4)cc3)n2)[nH]n1 [Compound 2] > 6.00
